// data source = ChEMBL document CHEMBL1149168

protocol notes: Maximum plasma concentration of compound in dog following p.o. administration of 1 mg/kg
Format: ADME, organism-based, Canis lupus familiaris
Parameters: dose 1 mg/kg, route oral
conditions used: po

cpd smiles | Cmax [nM]
O=C(Cn1c(Cl)cnc(NCC(F)(F)c2cccc[n+]2[O-])c1=O)NCc1ccccc1-n1cncn1 | 860

----------
protocol notes: Oral bioavailability of compound in rat
Assay type: ADME, organism-based
conditions used: in vivo

molecule | unit symbol | bioavailability
Cc1nc(N)ccc1CNC(=O)Cn1c(C)cnc(NCCc2ccccc2)c1=O [L-375378] | % | 42

----------
protocol notes: Half-life of compound in dog following p.o. administration of 0.95 mg/kg
Type: ADME, organism-based, Canis lupus familiaris
Design: dose 0.95 mg/kg, route oral
conditions used: in vivo, po
metric: half-life (h)

cpd smiles | unit symbol | result number
O=C(Cn1ccnc(NCC(F)(F)c2ccccn2)c1=O)NCc1cc(Cl)ccc1-n1cnnn1 | h | 2

----------
Measured Ki accompanies every entry in the list below.
subject of test: UniProtKB P00734
protocol notes: Inhibitory potency against human thrombin

cpd smiles | Ki / nM
Cc1ccc(NS(=O)(=O)Cc2ccccc2)c(=O)n1CC(=O)NCc1ccccc1-n1cnnn1 | 1.4
O=C(Cn1c(Cl)cnc(NCC(F)(F)c2ccccn2)c1=O)NCc1ccccc1-c1csnn1 | 0.84
N[C@H](Cc1ccccc1)C(=O)N1CCC[C@H]1CC(=O)NCc1ccccc1-n1cncn1 | 1.06
O=C(Cn1c(Cl)cnc(NCC(F)(F)c2ccccn2)c1=O)NCc1ncccc1-n1cncn1 | 0.66
Cn1nnnc1-c1ccccc1CNC(=O)Cn1c(Cl)cnc(NCC(F)(F)c2ccccn2)c1=O | 1.2
